Here the recorded protein stability index is given for each entry.
B1: KCNA4 (parent)
chain: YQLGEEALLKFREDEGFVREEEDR

# Variants of: B1
# Experimental Details: protein stability index of a GFP-peptide fusion (GPS, HEK-293T) (PSI 1-6); higher = more stable;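 note: lentivirally expressed fusions sorted by FACS into six bins by GFP to DsRed ratio, PSI derived from sequencing read proportions per bin multiplied by bin number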
# Setup Conditions: c terminus: a fixed tail appended
// print number alone

Data point: D23H ; protein stability index = 3.94

protein stability index measured on D14I = 4

In plain terms, D23F has a documented protein stability index of 4.14
